B1: TPR 5TU (parent)
chain: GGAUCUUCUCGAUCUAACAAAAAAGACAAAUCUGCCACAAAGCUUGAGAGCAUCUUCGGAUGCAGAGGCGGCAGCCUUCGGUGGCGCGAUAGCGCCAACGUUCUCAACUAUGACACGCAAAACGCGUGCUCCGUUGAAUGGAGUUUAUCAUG

Variants of: B1
test: polymerase ribozyme fitness, log enrichment relative to wild type (log ratio); higher = more active; in vitro selection for triplet polymerase activity
Variants at the floor of the assay were thinned out.
# polymerase ribozyme fitness (log ratio) listing for each entry below

{"mutation annotation": "C8G A30C C75A G86U C118G", "experimental value": "≤ -4.2"}
{"mutation annotation": "C27U A52G G92A C96U G133A", "experimental value": "≤ -4.2"}
{"mutation annotation": "C8A C14U A16U U33G A47U C57A C93A A142U", "experimental value": "≤ -4.2"}
{"mutation annotation": "A30G C87A A91C A110U A115U U135C", "experimental value": "≤ -4.2"}

Task item: Which polymerase ribozyme fitness (log ratio) value is on record for U9C A37C U55G A66C G70C C76A C131U ?
Reply: ≤ -4.2

Task item: Again, but for A3U U4C A52C G67A G83U A122U A137U U148A
Reply: ≤ -4.2

Task item: Another variant to look at: C79G U82A C87U C103A
Reply: ≤ -4.2

Task item: How about this variant: A39U U44G U109C
Reply: ≤ -4.2

Task item: Entry U6G G80C C149A please
Reply: ≤ -4.2
